Target: DNA topoisomerase 2-alpha (Homo sapiens, UniProt P11388)
Sequence (P11388 whole entry): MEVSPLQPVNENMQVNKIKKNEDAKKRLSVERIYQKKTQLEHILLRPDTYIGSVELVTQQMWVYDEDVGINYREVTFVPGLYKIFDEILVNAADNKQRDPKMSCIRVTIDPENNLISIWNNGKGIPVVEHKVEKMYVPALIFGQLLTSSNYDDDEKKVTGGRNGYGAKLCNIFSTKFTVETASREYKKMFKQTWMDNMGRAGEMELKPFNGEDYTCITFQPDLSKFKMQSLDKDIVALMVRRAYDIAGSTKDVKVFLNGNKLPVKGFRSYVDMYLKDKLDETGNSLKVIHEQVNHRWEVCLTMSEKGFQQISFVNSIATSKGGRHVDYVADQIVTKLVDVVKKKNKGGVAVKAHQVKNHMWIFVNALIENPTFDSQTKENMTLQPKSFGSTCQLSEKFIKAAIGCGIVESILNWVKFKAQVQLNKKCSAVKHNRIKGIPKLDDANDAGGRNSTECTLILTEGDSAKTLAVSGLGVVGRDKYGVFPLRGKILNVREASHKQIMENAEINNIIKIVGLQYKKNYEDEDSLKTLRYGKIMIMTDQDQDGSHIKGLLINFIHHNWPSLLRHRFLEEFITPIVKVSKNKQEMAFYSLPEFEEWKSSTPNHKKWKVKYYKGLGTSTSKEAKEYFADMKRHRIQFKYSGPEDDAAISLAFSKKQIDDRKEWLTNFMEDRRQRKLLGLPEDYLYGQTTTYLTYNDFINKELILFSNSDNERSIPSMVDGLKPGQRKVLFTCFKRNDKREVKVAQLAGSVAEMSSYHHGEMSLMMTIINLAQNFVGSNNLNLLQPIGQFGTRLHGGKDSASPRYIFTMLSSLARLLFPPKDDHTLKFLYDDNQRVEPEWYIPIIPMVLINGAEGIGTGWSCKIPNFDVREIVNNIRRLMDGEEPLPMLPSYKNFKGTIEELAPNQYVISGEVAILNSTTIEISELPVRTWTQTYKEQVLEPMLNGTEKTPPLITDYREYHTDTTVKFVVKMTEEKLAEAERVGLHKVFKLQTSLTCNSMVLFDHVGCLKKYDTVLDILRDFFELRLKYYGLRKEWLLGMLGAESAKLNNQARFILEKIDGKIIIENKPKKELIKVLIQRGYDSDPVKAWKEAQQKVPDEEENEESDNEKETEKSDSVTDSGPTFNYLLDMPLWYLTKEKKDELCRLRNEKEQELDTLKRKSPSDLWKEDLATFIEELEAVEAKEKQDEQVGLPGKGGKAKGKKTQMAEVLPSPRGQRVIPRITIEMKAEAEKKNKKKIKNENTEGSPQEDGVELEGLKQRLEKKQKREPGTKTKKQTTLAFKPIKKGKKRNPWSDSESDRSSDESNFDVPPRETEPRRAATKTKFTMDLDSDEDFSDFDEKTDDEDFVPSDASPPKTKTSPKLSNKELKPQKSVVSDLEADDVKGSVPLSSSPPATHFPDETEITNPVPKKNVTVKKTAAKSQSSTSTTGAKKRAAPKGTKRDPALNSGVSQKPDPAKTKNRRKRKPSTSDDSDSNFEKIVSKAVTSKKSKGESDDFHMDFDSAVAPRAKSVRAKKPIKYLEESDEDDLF
Test: Inhibition of human topoisomerase-2 alpha ATPase activity expressed in baculovirus infected insect cells assessed as disappearance of NADH at 10 uM using pBR322 DNA as substrate preincubated for 10 mins followed by ATP addition measured up to 35 mins by spectrophotometric based pyruvate kinase/lactate dehydrogenase coupled enzyme assay relative to control
Entries and their inhibition values follow.
Reply with a number, then the unit it belongs to.

Q: Which measured inhibition value corresponds to O=C1C(O)=C(C(c2ccc(F)cc2)c2c(O)c3ccccc3oc2=O)C(=O)c2ccccc21 (centres undefined) ?
Result: 67%

Q: O=C1C(O)=C(C(c2ccc3c(c2)OCO3)c2c(O)c3ccccc3oc2=O)C(=O)c2ccccc21 (centres undefined) , same question.
Result: 43%

Q: O=C1C(O)=C(C(c2ccc(Cl)cc2)c2c(O)c3ccccc3oc2=O)C(=O)c2ccccc21 (centres undefined) , same question.
Result: 61%

Q: O=C1C(O)=C(C(c2ccccc2)c2c(O)c3ccccc3oc2=O)C(=O)c2ccccc21 (centres undefined) , same question.
Result: 69%

* * *

Target: DNA topoisomerase 2-alpha (Homo sapiens)
Test: Inhibition of human topoisomerase-2 alpha expressed in baculovirus infected insect cells assessed as reduction in enzyme-meditaed supercoiled pRYG DNA substrate relaxation at 100 uM in presence of buffer containing 2-mercaptoethanol after 30 mins by agarose gel electrophoresis method
Active and inactive are the calls of the source. The calls are words filed in the database; no cut-off is given here.
Select the correct class. Options are T = active, F = inactive and nothing else.

Q: Fill in: this test's call for O=C1C(O)=C(C(c2ccc(Br)cc2)c2c(O)c3ccccc3oc2=O)C(=O)c2ccccc21 (centres undefined) is ___
Result: T

Q: `C[C@@H](CN1CC(=O)NC(=O)C1)N1CC(=O)NC(=O)C1` , same question.
Result: F

Q: O=C1C(O)=C(C(c2ccccc2F)c2c(O)c3ccccc3oc2=O)C(=O)c2ccccc21 (centres undefined) , same question.
Result: T

Q: `O=C1NC(=S)NC(=O)C1C(=O)Nc1ccccc1` , same question.
Result: F

Hey, just so you know, these numbers are from ChEMBL document CHEMBL4000219.
